Counter-ions that a name gives are not always drawn.
readout.type: melting point

Below, 3 molecules whose answers are already recorded.
molecule: CC(=O)Nc1cc(S(N)(=O)=O)ccc1OCc1cn(CCCCS(=O)(=O)O)nn1 (as salt: sodium)
melting point: > 300 °C
--
molecule: CC(=O)Nc1cc(S(N)(=O)=O)ccc1OCc1cn(CCCS(=O)(=O)[O-])nn1.[Na+]
melting point: > 300 °C
--
molecule: NS(=O)(=O)c1ccc(OCc2cn(CCCS(=O)(=O)[O-])nn2)cc1.[Na+]
melting point: 290 to 293 °C

Please report melting point for every entry that follows.
1. NS(=O)(=O)c1ccc(C(=O)NCc2cn(CCCS(=O)(=O)[O-])nn2)cc1.[Na+]
2. CCC(=O)Nc1cc(S(N)(=O)=O)ccc1OCc1cn(CCCCS(=O)(=O)O)nn1 (as salt: sodium)
3. NS(=O)(=O)c1ccc(CNC(=O)NCc2cn(CCCS(=O)(=O)[O-])nn2)cc1.[Na+]
4. NS(=O)(=O)c1ccc(NC(=O)Nc2ccc(OCc3cn(CCCS(=O)(=O)[O-])nn3)cc2)cc1.[Na+]

Reply:
> 300 °C
> 300 °C
295 to 297 °C
> 300 °C

* * *

// Ki collected for hCA IX (Homo sapiens, UniProt Q16790)
Give bare numbers, in nM.

Below, 4 molecules whose answers are already recorded.
structure: NS(=O)(=O)c1ccc(OCc2cn(CCCS(=O)(=O)[O-])nn2)cc1.[Na+]
units.of.measure: nM
Ki: 44.4
--
structure: NS(=O)(=O)c1ccc(NC(=O)NCc2cn(CCCS(=O)(=O)[O-])nn2)cc1.[Na+]
units.of.measure: nM
Ki: 68.2
--
structure: NS(=O)(=O)c1ccc(NC(=O)Nc2ccc(OCc3cn(CCCS(=O)(=O)[O-])nn3)cc2)cc1.[Na+]
units.of.measure: nM
Ki: 54.4
--
structure: NS(=O)(=O)c1ccc(NC(=S)NCc2cn(CCCS(=O)(=O)[O-])nn2)cc1.[Na+]
units.of.measure: nM
Ki: 51.2

Attention now shifts to the item below.
Task item: For the molecule NS(=O)(=O)c1ccc(CCNC(=O)NCc2cn(CCCS(=O)(=O)[O-])nn2)cc1.[Na+] , what Ki is on record?
Reply: 282

* * *

tested.system: hCA XII (Homo sapiens)
Construct: made in house
Sequence (O43570 25-354): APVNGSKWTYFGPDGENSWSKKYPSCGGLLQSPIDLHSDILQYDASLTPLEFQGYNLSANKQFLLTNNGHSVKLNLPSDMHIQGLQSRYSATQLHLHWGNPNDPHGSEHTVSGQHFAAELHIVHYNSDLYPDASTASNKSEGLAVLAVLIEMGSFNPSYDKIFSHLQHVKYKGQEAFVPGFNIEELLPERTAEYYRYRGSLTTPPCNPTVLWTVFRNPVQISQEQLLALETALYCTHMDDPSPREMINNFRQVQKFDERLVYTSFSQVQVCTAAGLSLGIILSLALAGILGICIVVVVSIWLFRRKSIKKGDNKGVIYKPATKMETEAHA
experiment.notes: stopped flow CO2 hydrase assay, CA XII
Assay type: biochemical
conditions: ratio between KI values
Procedure: An Applied Photophysics stopped-flow instrument was used for assaying the CA catalyzed CO2 hydration activity. Phenol red (at a concentration of 0.2 mM) was used as an indicator, working at the absorbance maximum of 557 nm, with 20 mM HEPES (pH 7.5) as buffer, and 20 mM Na2SO4 (for maintaining constant the ionic strength), following the initial rates of the CA-catalyzed CO2 hydration reaction for a period of 10–100 s. […]
readout.type: Selectivity index (SI) CA I/CA XII
Numbers only.

Below, 2 compounds whose answers are already recorded.
structure: NS(=O)(=O)c1ccc(-c2cn(CCCS(=O)(=O)[O-])nn2)cc1.[Na+]
Selectivity index (SI) CA I/CA XII: 12

structure: NS(=O)(=O)c1ccc(NC(=O)Nc2ccc(OCc3cn(CCCS(=O)(=O)[O-])nn3)cc2)cc1.[Na+]
Selectivity index (SI) CA I/CA XII: 1.1

Please report Selectivity index (SI) CA I/CA XII for every entry that follows.
1. NS(=O)(=O)c1ccc(OCc2cn(CCCS(=O)(=O)[O-])nn2)cc1.[Na+]
2. NS(=O)(=O)c1ccc(NCc2cn(CCCS(=O)(=O)[O-])nn2)cc1.[Na+]
3. NS(=O)(=O)c1ccc(NC(=O)NCc2cn(CCCS(=O)(=O)[O-])nn2)cc1.[Na+]

Reply:
1: 1.7; 2: 1.1; 3: 9.2

Please report Selectivity index (SI) CA I/CA XII for every entry that follows.
1. NS(=O)(=O)c1ccc(NC(=S)NCc2cn(CCCS(=O)(=O)[O-])nn2)cc1.[Na+]
2. NS(=O)(=O)c1ccc(CCNC(=O)NCc2cn(CCCS(=O)(=O)[O-])nn2)cc1.[Na+]
3. CCC(=O)Nc1cc(S(N)(=O)=O)ccc1OCc1cn(CCCS(=O)(=O)[O-])nn1.[Na+]
4. NS(=O)(=O)c1ccc(CNC(=O)NCc2cn(CCCS(=O)(=O)[O-])nn2)cc1.[Na+]

Reply:
1. 8.5
2. 8.8
3. 194
4. 49

* * *

tested.system: hCA IX (Homo sapiens)
Construct: made in house
experiment.notes: stopped flow CO2 hydrase assay, CA IX
Type: biochemical
conditions: ratio between KI values
Please respond with reported Selectivity index (SI) CA II/CA IX for every item in the list.
Answers are plain numbers.

structure: NS(=O)(=O)c1ccc(NCc2cn(CCCS(=O)(=O)[O-])nn2)cc1.[Na+]
readout.type: Selectivity index (SI) CA II/CA IX
meas.value: 0.01

Please report Selectivity index (SI) CA II/CA IX for every entry that follows.
1. NS(=O)(=O)c1ccc(CNC(=O)NCc2cn(CCCS(=O)(=O)[O-])nn2)cc1.[Na+]
2. NS(=O)(=O)c1ccc(CCNC(=O)NCc2cn(CCCS(=O)(=O)[O-])nn2)cc1.[Na+]
3. NS(=O)(=O)c1ccc(-c2cn(CCCS(=O)(=O)[O-])nn2)cc1.[Na+]

Reply:
1.9
0.15
0.09

* * *

tested.system: hCA I (Homo sapiens, UniProt P00915)
Construct: made in house
Sequence (P00915 whole entry): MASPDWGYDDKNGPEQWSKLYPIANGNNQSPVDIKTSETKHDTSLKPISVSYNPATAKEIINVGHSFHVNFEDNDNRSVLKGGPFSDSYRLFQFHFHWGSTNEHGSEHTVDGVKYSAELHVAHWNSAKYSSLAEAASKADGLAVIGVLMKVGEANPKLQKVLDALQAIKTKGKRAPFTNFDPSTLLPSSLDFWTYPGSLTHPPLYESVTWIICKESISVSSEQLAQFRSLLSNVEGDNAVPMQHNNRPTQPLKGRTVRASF
experiment.notes: stopped flow CO2 hydrase assay, CA I
Format: biochemical
conditions: mean from 3 different assays, errors ±5–10%
readout.type: Ki
The answer consists of two parts: a number and, after it, its unit.

Please report Ki for every entry that follows.
1. CCC(=O)Nc1cc(S(N)(=O)=O)ccc1OCc1cn(CCCCS(=O)(=O)O)nn1
2. CCC(=O)Nc1cc(S(N)(=O)=O)ccc1OCc1cn(CCCS(=O)(=O)[O-])nn1.[Na+]

Reply:
1: 3650 nM; 2: 9160 nM

Please report Ki for every entry that follows.
1. NS(=O)(=O)c1ccc(NC(=S)NCc2cn(CCCS(=O)(=O)[O-])nn2)cc1.[Na+]
2. NS(=O)(=O)c1ccc(-c2cn(CCCS(=O)(=O)[O-])nn2)cc1.[Na+]

Reply:
1. 79.9 nM
2. 83.5 nM

* * *

tested.system: hCA IX (Homo sapiens, UniProt Q16790)
Construct: made in house
experiment.notes: stopped flow CO2 hydrase assay, CA IX
Format: biochemical
conditions: ratio between KI values
Please respond with reported Selectivity index (SI) CA I/CA IX for every item in the list.
Give bare numbers.

molecule: NS(=O)(=O)c1ccc(NCc2cn(CCCS(=O)(=O)[O-])nn2)cc1.[Na+] [Compound 32]
meas.value: 1.0

molecule: NS(=O)(=O)c1ccc(C(=O)NCc2cn(CCCS(=O)(=O)[O-])nn2)cc1.[Na+] [Compound 33]
meas.value: 143

molecule: NS(=O)(=O)c1ccc(NC(=O)NCc2cn(CCCS(=O)(=O)[O-])nn2)cc1.[Na+] [Compound 34]
meas.value: 9.1

molecule: CCC(=O)Nc1cc(S(N)(=O)=O)ccc1OCc1cn(CCCS(=O)(=O)[O-])nn1.[Na+] [Compound 40]
meas.value: 167

molecule: NS(=O)(=O)c1ccc(CNC(=O)NCc2cn(CCCS(=O)(=O)[O-])nn2)cc1.[Na+] [Compound 35]
meas.value: 11

Please report Selectivity index (SI) CA I/CA IX for every entry that follows.
1. NS(=O)(=O)c1ccc(CCNC(=O)NCc2cn(CCCS(=O)(=O)[O-])nn2)cc1.[Na+] [Compound 36]
2. NS(=O)(=O)c1ccc(-c2cn(CCCS(=O)(=O)[O-])nn2)cc1.[Na+] [Compound 30]

Reply:
1. 0.3
2. 2.3

Please report Selectivity index (SI) CA I/CA IX for every entry that follows.
1. NS(=O)(=O)c1ccc(OCc2cn(CCCS(=O)(=O)[O-])nn2)cc1.[Na+] [Compound 31]
2. NS(=O)(=O)c1ccc(NC(=O)Nc2ccc(OCc3cn(CCCS(=O)(=O)[O-])nn3)cc2)cc1.[Na+] [Compound 38]

Reply:
1: 1.8; 2: 0.95

* * *

readout.type: melting point

Below, 3 compounds whose answers are already recorded.
structure: NS(=O)(=O)c1ccc(NCc2cn(CCCS(=O)(=O)[O-])nn2)cc1.[Na+]
melting point: > 300 °C
--
structure: NS(=O)(=O)c1ccc(NC(=O)NCc2cn(CCCS(=O)(=O)[O-])nn2)cc1.[Na+]
melting point: > 300 °C
--
structure: NS(=O)(=O)c1ccc(NC(=S)NCc2cn(CCCS(=O)(=O)[O-])nn2)cc1.[Na+]
melting point: 230 to 232 °C

Attention now shifts to the item below.
Task item: For the compound NS(=O)(=O)c1ccc(-c2cn(CCCS(=O)(=O)[O-])nn2)cc1.[Na+] , what melting point is on record?
Reply: > 300 °C
